# target-or-test-system: Huntingtin (Homo sapiens, UniProt P42858)
# Sequence (P42858 whole entry, looked up, stated change not applied, the tested form may be a part): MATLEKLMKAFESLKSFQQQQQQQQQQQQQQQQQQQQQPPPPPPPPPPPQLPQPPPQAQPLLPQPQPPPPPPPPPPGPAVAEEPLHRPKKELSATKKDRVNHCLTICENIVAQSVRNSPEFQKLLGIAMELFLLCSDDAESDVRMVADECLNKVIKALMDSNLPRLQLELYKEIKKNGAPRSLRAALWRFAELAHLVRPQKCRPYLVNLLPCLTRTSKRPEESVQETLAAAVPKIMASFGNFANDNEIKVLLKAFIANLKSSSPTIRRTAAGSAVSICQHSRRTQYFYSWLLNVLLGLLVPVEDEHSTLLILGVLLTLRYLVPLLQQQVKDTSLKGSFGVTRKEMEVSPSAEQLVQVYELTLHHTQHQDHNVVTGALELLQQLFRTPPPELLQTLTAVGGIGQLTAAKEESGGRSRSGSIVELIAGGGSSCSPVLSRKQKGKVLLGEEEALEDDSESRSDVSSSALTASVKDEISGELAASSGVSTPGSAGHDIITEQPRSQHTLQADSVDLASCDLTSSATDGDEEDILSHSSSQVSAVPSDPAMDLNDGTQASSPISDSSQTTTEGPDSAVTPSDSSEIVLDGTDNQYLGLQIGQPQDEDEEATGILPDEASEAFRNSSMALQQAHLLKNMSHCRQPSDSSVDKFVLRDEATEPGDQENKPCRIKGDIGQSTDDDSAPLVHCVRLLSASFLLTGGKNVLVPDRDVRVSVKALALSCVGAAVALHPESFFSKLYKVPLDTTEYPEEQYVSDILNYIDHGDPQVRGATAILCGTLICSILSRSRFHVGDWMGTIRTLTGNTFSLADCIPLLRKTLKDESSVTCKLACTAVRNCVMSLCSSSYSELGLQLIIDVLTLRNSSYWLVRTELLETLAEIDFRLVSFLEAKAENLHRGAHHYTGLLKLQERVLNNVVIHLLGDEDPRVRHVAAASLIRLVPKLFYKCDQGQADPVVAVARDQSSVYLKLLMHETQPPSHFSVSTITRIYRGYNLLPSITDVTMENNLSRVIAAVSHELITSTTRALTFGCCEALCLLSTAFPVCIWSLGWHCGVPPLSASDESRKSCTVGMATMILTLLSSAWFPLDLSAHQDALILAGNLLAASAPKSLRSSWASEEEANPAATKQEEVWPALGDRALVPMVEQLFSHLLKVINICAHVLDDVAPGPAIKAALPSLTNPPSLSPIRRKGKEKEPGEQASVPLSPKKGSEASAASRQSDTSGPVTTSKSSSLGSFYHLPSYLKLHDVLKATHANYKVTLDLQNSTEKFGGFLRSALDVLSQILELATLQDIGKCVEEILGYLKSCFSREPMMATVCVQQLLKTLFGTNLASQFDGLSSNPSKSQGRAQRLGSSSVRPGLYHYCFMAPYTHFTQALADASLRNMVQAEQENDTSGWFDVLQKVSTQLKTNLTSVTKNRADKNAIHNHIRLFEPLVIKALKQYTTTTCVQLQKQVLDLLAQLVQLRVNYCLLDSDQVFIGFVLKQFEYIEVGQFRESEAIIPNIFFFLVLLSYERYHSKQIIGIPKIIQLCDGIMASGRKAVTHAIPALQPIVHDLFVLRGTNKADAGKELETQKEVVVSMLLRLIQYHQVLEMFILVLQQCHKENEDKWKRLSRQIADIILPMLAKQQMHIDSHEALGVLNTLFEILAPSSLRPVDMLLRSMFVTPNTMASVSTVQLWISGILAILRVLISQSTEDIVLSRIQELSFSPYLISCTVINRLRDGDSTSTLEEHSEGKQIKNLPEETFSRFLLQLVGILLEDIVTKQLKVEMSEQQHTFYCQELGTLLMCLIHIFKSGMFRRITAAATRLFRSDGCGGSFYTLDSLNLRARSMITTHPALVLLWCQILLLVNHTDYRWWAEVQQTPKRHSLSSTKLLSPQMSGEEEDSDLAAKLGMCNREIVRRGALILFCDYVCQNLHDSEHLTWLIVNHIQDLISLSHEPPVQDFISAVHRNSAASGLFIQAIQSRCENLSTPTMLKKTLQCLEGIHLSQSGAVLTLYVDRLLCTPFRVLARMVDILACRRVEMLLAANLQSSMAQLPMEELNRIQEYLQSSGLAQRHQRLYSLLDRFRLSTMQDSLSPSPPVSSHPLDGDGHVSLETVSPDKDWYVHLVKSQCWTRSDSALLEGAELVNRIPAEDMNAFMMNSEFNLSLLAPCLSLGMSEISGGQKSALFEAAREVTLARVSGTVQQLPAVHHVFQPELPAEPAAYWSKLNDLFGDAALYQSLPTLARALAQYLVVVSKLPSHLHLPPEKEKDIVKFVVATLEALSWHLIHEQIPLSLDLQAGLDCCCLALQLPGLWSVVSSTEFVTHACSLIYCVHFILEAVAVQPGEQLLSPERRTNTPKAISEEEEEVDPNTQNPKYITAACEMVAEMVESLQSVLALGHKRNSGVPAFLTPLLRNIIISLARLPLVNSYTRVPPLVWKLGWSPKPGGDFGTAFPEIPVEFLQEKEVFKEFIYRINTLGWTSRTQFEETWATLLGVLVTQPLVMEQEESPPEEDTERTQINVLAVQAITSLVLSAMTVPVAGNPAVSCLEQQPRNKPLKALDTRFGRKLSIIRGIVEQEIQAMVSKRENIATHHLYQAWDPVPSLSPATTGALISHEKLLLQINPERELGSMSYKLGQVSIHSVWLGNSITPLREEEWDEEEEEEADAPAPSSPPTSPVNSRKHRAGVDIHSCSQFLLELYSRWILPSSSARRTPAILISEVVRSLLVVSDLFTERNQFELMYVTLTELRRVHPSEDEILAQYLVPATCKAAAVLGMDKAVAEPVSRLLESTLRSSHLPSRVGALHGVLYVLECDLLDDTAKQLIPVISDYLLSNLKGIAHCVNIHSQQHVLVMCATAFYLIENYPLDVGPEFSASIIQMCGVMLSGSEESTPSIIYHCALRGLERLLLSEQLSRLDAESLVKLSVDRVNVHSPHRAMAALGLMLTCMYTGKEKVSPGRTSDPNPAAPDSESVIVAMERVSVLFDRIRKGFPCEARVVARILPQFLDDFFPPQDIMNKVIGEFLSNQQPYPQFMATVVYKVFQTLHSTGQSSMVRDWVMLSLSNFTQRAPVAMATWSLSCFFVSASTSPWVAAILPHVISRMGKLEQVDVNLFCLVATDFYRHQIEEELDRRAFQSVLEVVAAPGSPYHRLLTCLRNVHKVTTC
# assay-protocol: Inhibition of GFP-fused Huntingtin protein Q103/Q25 mutant (unknown origin) […] assessed as protection against huntingtin protein aggregation incubated for 48 hrs by multiplexed assay based HTT f3(agr) method
# Type: cell-based
# details: pc-12
AC50 values for the molecules below.

- compound-string: "Cn1nnnc1Sc1ncnc2scc(-c3cccc(Br)c3)c12"
  AC50 / µM: 35.5
- compound-string: "Cc1cccc(-c2csc3ncnc(Sc4nnnn4C)c23)c1"
  AC50 / µM: 35.5
- compound-string: "Cn1nnnc1Sc1ncnc2scc(-c3ccc(C(F)(F)F)cc3)c12"
  AC50 / µM: 35.5
- compound-string: "Cn1nnnc1Sc1ncnc2scc(-c3cccc(Cl)c3)c12"
  AC50 / µM: 22.4
- compound-string: "Cn1nnnc1Sc1ncnc2scc(-c3cccc([N+](=O)[O-])c3)c12"
  AC50 / µM: 35.5
- compound-string: "Cn1nnnc1Sc1ncnc2scc(-c3ccc4c(=O)ccoc4c3)c12"
  AC50 / µM: 35.5
- compound-string: "Cn1nnnc1Sc1ncnc2scc(-c3ccc(-c4ccccc4)cc3)c12"
  AC50 / µM: 28.2
- compound-string: "COc1ccccc1-c1csc2ncnc(Sc3nnnn3C)c12"
  AC50 / µM: 31.6
- compound-string: "Cn1nnnc1Sc1ncnc2scc(-c3cccc(N)c3)c12"
  AC50 / µM: 31.6
- compound-string: "Cn1nnnc1Sc1ncnc2scc(-c3cccs3)c12"
  AC50 / µM: 35.5
- compound-string: "Cn1nnnc1Sc1ncnc2scc(-c3ccc(Cl)cc3)c12"
  AC50 / µM: 39.8
- compound-string: "Cn1nnnc1Sc1ncnc2scc(-c3ccc(C(=O)OC(C)(C)C)cc3)c12"
  AC50 / µM: 35.5
- compound-string: "Cn1nnnc1Sc1ncnc2scc(-c3cc4ccccc4o3)c12"
  AC50 / µM: 7.94
- compound-string: "Cn1nnnc1Sc1ncnc2scc(-c3ccccc3)c12"
  AC50 / µM: 39.8
- compound-string: "CC(=O)c1cccc(-c2csc3ncnc(Sc4nnnn4C)c23)c1"
  AC50 / µM: 28.2
- compound-string: "Cc1ccc(-c2csc3ncnc(Sc4nnnn4C)c23)cc1"
  AC50 / µM: 39.8
- compound-string: "Cn1nnnc1Sc1ncnc2scc(-c3ccc(S(C)(=O)=O)cc3)c12"
  AC50 / µM: 15.8
- compound-string: "Cn1nnnc1Sc1ncnc2scc(-c3cccc4ccccc34)c12"
  AC50 / µM: 35.5
- compound-string: "Cn1nnnc1Sc1ncnc2scc(-c3cccc(C(F)(F)F)c3)c12"
  AC50 / µM: 35.5
- compound-string: "Cn1nnnc1Sc1ncnc2scc(-c3cccc(F)c3)c12"
  AC50 / µM: 14.1
- compound-string: "Cn1nnnc1Sc1ncnc2scc(-c3ccc[nH]3)c12"
  AC50 / µM: 31.6
- compound-string: "Cn1nnnc1Sc1ncnc2scc(-c3ccc(F)cc3)c12"
  AC50 / µM: 20
- compound-string: "Cn1nnnc1Sc1ncnc2scc(I)c12"
  AC50 / µM: 35.5
- compound-string: "COc1ccc(-c2csc3ncnc(Sc4nnnn4C)c23)cc1"
  AC50 / µM: 39.8
- compound-string: "Cn1nnnc1Sc1ncnc2scc(-c3ccc(Br)cc3)c12"
  AC50 / µM: 35.5
- compound-string: "Cn1nnnc1Sc1ncnc2scc(-c3cccc(S(C)(=O)=O)c3)c12"
  AC50 / µM: 39.8
- compound-string: "Cn1nnnc1Sc1ncnc2scc(-c3ccc4c(c3)OCO4)c12"
  AC50 / µM: 20
- compound-string: "Cn1nnnc1Sc1ncnc2scc(Br)c12"
  AC50 / µM: 5.01
- compound-string: "Cn1nnnc1Sc1ncnc2scc(-c3cccc4c3sc3ccccc34)c12"
  AC50 / µM: 35.5
- compound-string: "COc1cccc(-c2csc3ncnc(Sc4nnnn4C)c23)c1"
  AC50 / µM: 28.2
- compound-string: "Cn1nnnc1Sc1ncnc2scc(-c3cccc(C#N)c3)c12"
  AC50 / µM: 35.5
- compound-string: "Cn1nnnc1Sc1ncnc2scc(-c3ccc4ccccc4c3)c12"
  AC50 / µM: 15.8
- compound-string: "Cn1nnnc1Sc1ncnc2scc(-c3ccccc3C(F)(F)F)c12"
  AC50 / µM: 28.2

Recorded values, source ChEMBL document CHEMBL3727374.
